Values from the supplement of paper PMC7156485

test system: HCC1569; assay: H1.0 immunofluorescence intensity relative to DMSO (% of DMSO); higher = stronger H1.0 induction, active = 140 or more; details: concentration: 10 µM; 24 h;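 note: TDF is a line of transformed human dermal fibroblasts of mesenchymal origin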
Could you label it Fulfilled if measured H1.0 immunofluorescence intensity is 100 or higher, and Not fulfilled otherwise?

Would you say CCC(C)C(=O)OC1CC(C)C=C2C=CC(C)C(CCC3CC(O)CC(=O)O3)C21 (stereo unspecified) [Lovastatin] shows H1.0 immunofluorescence intensity at minimum 100? Fulfilled

Would you say Nc1ccc2c3c(cccc13)C(=O)NC2=O [4-Amino-1,8-naphthalimide] shows H1.0 immunofluorescence intensity at minimum 100? Fulfilled

Would you say CN1CCN(CCC=C2c3ccccc3Sc3ccc(S(=O)(=O)N(C)C)cc32)CC1.Cl [Thiothixene hydrochloride] shows H1.0 immunofluorescence intensity at minimum 100? Not fulfilled

Would you say CN(C(Cc1ccc(OS(=O)(=O)c2cccc3cnccc23)cc1)C(=O)N1CCN(c2ccccc2)CC1)S(=O)(=O)c1cccc2cnccc12 (stereo unspecified) shows H1.0 immunofluorescence intensity at minimum 100? Fulfilled

Would you say Cl.Cl.OCCN1CCN(CCCN2c3ccccc3Sc3ccc(C(F)(F)F)cc32)CC1 [Fluphenazine.2HCl] shows H1.0 immunofluorescence intensity at minimum 100? Fulfilled

Would you say COc1cc2ncnc(Nc3ccc(OCc4ccccc4)cc3)c2cc1OC [EGFR/ErbB-2 Inhibitor] shows H1.0 immunofluorescence intensity at minimum 100? Fulfilled

Would you say CC1=CCC2(C)CCC(O)(C(C)C)C2C(OC(=O)c2ccc(O)cc2)C1 (stereo unspecified) [Ferutinin] shows H1.0 immunofluorescence intensity at minimum 100? Fulfilled

Would you say CN(C)S(=O)(=O)c1ccc2c(c1)C(=Cc1cc3c([nH]1)CCCC3)C(=O)N2 shows H1.0 immunofluorescence intensity at minimum 100? Fulfilled

Would you say CN(Cc1cnc2nc(N)nc(N)c2n1)c1ccc(C(=O)NC(CCC(=O)O)C(=O)O)cc1 (stereo unspecified) [Methotrexate] shows H1.0 immunofluorescence intensity at minimum 100? Not fulfilled

Would you say CC(N)=NCc1cccc(CN)c1.Cl.Cl [1400W dihydrochloride] shows H1.0 immunofluorescence intensity at minimum 100? Fulfilled

Would you say COc1ccc2c(c1)c(CC(=O)O)c(C)n2C(=O)c1ccccc1 [1-benzoyl-5-methoxy-2-methylindole-3-acetic acid] shows H1.0 immunofluorescence intensity at minimum 100? Not fulfilled

* * *

What cell number was measured for each of the following?
tested on: TDF; assay: cell number relative to DMSO (% of DMSO); higher = more cells (less growth inhibition / toxicity); conditions: concentration: 10 µM; 24 h;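 note: TDF denotes transformed human dermal fibroblasts of mesenchymal origin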
Lab note: jot down the number only; don't add units.

Specify reported cell number for the compound shown: CN=C(NC#N)NCCSCc1nc[nH]c1C [Cimetidine] 100

Specify reported cell number for the compound shown: O=C1Nc2ccc(Cl)cc2C(C#CC2CC2)(C(F)(F)F)O1 (configuration not stated) [Efavirenz] 98.5

Specify reported cell number for the compound shown: O=C1CCc2c(ccc3ccccc23)O1 [1,2-dihydro-3H-benzo[f]chromen-3-one] 101

Specify reported cell number for the compound shown: COc1cc(/C=C/C(=O)NCCn2c(C)cc3ccccc32)cc(OC)c1OC 96.6

Specify reported cell number for the compound shown: CCCCCCCCCCCC=CCC=CCCCC(=O)O [Eicosa-5,8-dienoic acid (20:2 n-12)] 99.6

Specify reported cell number for the compound shown: CON=C(C(=O)NC1C(=O)N2C(C(=O)[O-])=C(C[N+]3(C)CCCC3)CSC12)c1csc(N)n1 (configuration not stated) [Cefepime] 97

Specify reported cell number for the compound shown: CNC1C(OC2C(OC3C(O)C(O)C(N=C(N)N)C(O)C3N=C(N)N)OC(C)C2(O)C=O)OC(CO)C(O)C1O (configuration not stated) [Streptomycin] 103

Specify reported cell number for the compound shown: CCCCCC(O)C=CC=CC=CC(O)CC=CCCCC(=O)O [8(S),15(S)-DIHETE all trans] 96.5

Specify reported cell number for the compound shown: CC(C)(ON=C(C(=O)NC1C(=O)N2C(C(=O)[O-])=C(C[n+]3ccccc3)CSC12)c1csc(N)n1)C(=O)O (configuration not stated) [Ceftazidime] 103

Specify reported cell number for the compound shown: CCN(CC)C(=S)SSC(=S)N(CC)CC [Disulfiram] 39

Specify reported cell number for the compound shown: O=C(O)c1cc2cc(F)ccc2[nH]1 [5-Fluoroindole-2-carboxylic acid] 89

Specify reported cell number for the compound shown: COc1ccc(N2C(=O)CSC2c2cccc(Br)c2)c(OC)c1 (configuration not stated) 10.8

Specify reported cell number for the compound shown: c1ccc(-c2[nH]ncc2-c2ccnc3ccccc23)nc1 107

Specify reported cell number for the compound shown: CCN(CC)C(C)C(=O)N1c2ccccc2Sc2ccccc21.Cl (stereo not drawn) [10-(alpha-Diethylaminopropionyl)-phenothiazine hydrochloride] 99

Specify reported cell number for the compound shown: COc1ccc(Cl)cc1C(=O)NCCc1ccc(S(=O)(=O)NC(=O)NC2CCCCC2)cc1 [Glyburide] 102

Specify reported cell number for the compound shown: CCN(CC)CCOCCOC(=O)C1(c2ccccc2)CCCC1.O=C(O)CC(O)(CC(=O)O)C(=O)O [Carbetapentane citrate] 89

Specify reported cell number for the compound shown: CCCCCCCCCCCC(CC1OC(=O)C1CCCCCC)OC(=O)C(CC(C)C)NC=O (configuration not stated) [Tetrahydrolipistatin] 99.2
